# credit: the supplement of paper PMC12455559

Recorded melting temperature, one value per entry.
# measurement_description: melting temperature (DSF); higher = more thermostable
Report only the number, with the unit C understood.

Query block: Please supply the value of reported melting temperature for the item ADNPYQRGPAPTNTSIEATRGTYAVSTKTISALSARGFGGGTIYYPTSTADGTFGVVAISPGYTASQSTIAWLGPRLASFGFVVVTIDTTTRYDQPTSRGSQLLAALDQAIGDSTVGPRIDATRQAVVGHSMGGGGTLEAAKTRRSLEAAVPLTGWNLDKTWPEVEAATLVIGAQNDTVAPTTSHSIPFYNSLSGAERKAYLELRGASHFAPVTSNTTIAKHTLSWLKRYVDDDTRYEQFISPGPSTAIGSPVSDYRVN [DP022]
Result block: 35.8

Now for another entry.
Query block: Please supply the value of reported melting temperature for the item AENPHQRGPNPTVAALEAAAGPFAVAKVSVPGGHGFGGGTITYPTDTSQGTFGAVAVSPGFIESEGAIAWFGPRLASHGFVVITISTNGLFDQPDARGAQLLAALDYVTKSSAVRDRVDPARLAVMGHSMGGGGALYATAQRPALKASIPLLAWSNTKSWGSVRVPTMVIGAENDFIASVGSHSEPFYQSLGGEKAYLEMNDADHFVTNSPTPTVGKLTVSWLKRFMDNDTRYDQFLCPAPPVGGPISEYRDTCPYI [DP017]
Result block: 49.6

---

# measurement_description: PET hydrolysis, aromatic products released after 48 h (umol product/mg enzyme); higher = more PET depolymerization activity
# condition_context: substrate: cryPow; 40 °C; pH 4.5
assay_metric: PET hydrolysis
Lab note: write the figure by itself, no unit.

Query block: Please supply the value of reported PET hydrolysis for the item AGNPYQRGPDPTLASVAASRGTFATAQVSVPAGNGFNGGTIYYPTDSSQGTWGAVAIVPGYTALFANEEAWMGPWLASFGFVVIGIETNSRTDFDTARGTQLLAALDYLTQKSPVRDRVDSARLGVIGHSMGGGGVVYATEHRPSLKAAVALAPFSPSQDMSTDHVPTMVMGGQNDTVVTPSYLDGLYATMPASTQSDFVQLAGADHVAYTHPNTTEMRLLIPWLKIFLDDDTRYTQFLCPLMDSTGVSAYHSKCPYVPPGGSTSTPTPTPTITPTPPPSGACSATYRTVNSWSGGYQGEVTVTAGDAAINGWTVRWNLGGGQTVTQVWNGTLSTSGSTATVTNASYNGSLQASASTTFGFLANGTPSTPAITCTSP [TEP114]
Result block: 7

---

Recorded purified protein yield per well, one value per entry.
# measurement_description: purified protein yield per well (BCA); higher = higher soluble expression
Report only the number, with the unit µg understood.

Query block: Please supply the value of reported purified protein yield per well for the item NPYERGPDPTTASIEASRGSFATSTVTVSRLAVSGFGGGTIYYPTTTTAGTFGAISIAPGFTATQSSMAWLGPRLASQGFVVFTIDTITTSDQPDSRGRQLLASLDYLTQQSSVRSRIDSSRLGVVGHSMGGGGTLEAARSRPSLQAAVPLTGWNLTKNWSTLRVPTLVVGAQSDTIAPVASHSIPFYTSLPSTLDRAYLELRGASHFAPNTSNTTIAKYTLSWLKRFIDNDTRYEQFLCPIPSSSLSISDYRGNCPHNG [ESM167]
Result block: 254

Query block: Please supply the value of reported purified protein yield per well for the item QYQKGPDPTTSSLERAGSFATRTISVSSLAASGFGGGRIYYPTASGSYGVIAVSPGYTGTASTMYFWGERLSSHGFVVIVIETNTLLDQPGSRANQLMAALNYTVSQGNSRTSALYGKVDGNRRGVAGHSMGGGGTLIAAADNASLKAAVPMAPWNLSSLSFRGIRVPTMIFGCQSDAIAPVNTHAVPFYNAIPSSTKKGYVEMRLDDHFCVMNGGGHYETLGKLGISWFKRFIDEDTRYSKFLCGTEYNATVRSTEVSDSKNNCPY [DP039]
Result block: 57

Query block: Please supply the value of reported purified protein yield per well for the item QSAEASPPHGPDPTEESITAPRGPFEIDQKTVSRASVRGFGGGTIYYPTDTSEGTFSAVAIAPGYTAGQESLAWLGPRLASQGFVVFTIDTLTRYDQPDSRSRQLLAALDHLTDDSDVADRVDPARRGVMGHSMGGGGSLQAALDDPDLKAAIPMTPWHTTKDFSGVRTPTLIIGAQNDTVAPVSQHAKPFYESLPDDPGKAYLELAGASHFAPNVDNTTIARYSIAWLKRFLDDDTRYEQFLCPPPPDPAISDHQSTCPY [TEP105]
Result block: 207

Query block: Please supply the value of reported purified protein yield per well for the item MLTITVATGSASAADNPYQRGPDPTRTSVTAVNGPFANTSVSVPTGYGFNGGRIYYPTDTSQGTFGAIAISPGYTALFSAELAWMGPWLASHGFVVIGIETNSRNDFDTARGTQLLAALDYLTQQSPVRDRVDPNRLAVAGHSMGGGGALSAATRRSSLKAVVGIAPYSPSSNLANDRVPTMIFAGQADTVVTPSYATGLYNSLPTTTESAYLEVAGADHGFMVGRSNPVMVRTMLPFVKMFIDNDARYSQFLCPLLDSSGVVTYRSTCPLLPSTPPTSTPTPTDPPTPTPTPTVPPGSASEIVGTQSSRCIDVPNASRNNGTRVQLYDCNKQTNQA [ESM121]
Result block: 268

Continuing:
Query block: Please supply the value of reported purified protein yield per well for the item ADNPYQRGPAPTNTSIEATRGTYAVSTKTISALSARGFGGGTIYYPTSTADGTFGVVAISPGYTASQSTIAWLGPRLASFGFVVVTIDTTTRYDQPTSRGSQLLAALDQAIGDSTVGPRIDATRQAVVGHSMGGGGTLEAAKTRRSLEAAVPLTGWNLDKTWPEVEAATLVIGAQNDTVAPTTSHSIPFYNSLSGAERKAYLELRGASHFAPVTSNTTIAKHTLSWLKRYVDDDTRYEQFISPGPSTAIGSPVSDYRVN [DP022]
Result block: 215
